tested on: UO-31 renal; assay: NCI tumour cell line growth inhibition, 48 h; in the data active = GI50 below about 0.43 µM; inactive = the rest
Answer with one of the outcomes given here: active, inactive

For orientation, consider the following solved cases.
# Molecule, Group
records = [
    ("O=C1/C(=C/c2ccc([N+](=O)[O-])s2)Oc2ccccc21", "active"),
    ("COc1cccc2c1cc([N+](=O)[O-])c1c(C(=O)O)cc3c(c12)OCO3", "inactive"),
    ("CCOC(=O)c1c(C)n(CC(C)C)c2c1cc1oc(=O)c(=O)n3cnc2c13", "inactive"),
]

Lab log entry: Cc1ccc(S(=O)(=O)NC(CCC(=O)Nc2ccccc2)C(=O)Nc2ccccc2)cc1 (stereo unspecified) — outcome as called in the assay?
active

So what was the verdict on `C=CC[Se]C(=O)Cc1c(C)n(C(=O)c2ccc(Cl)cc2)c2ccc(OC)cc12` in this test?
inactive

// param item: `O=C(Nc1cccc2cccnc12)c1ccc(N2C(=O)[C@@H]3[C@H](C2=O)[C@@H]2C=C[C@H]3C2)cc1` ; yields the recorded call
inactive
